# TARGET ENTITY: ERα (Homo sapiens)
# Construct: gene ESR1; isolated recombinant human ERα (Invitrogen)
# Sequence (P03372 1-595): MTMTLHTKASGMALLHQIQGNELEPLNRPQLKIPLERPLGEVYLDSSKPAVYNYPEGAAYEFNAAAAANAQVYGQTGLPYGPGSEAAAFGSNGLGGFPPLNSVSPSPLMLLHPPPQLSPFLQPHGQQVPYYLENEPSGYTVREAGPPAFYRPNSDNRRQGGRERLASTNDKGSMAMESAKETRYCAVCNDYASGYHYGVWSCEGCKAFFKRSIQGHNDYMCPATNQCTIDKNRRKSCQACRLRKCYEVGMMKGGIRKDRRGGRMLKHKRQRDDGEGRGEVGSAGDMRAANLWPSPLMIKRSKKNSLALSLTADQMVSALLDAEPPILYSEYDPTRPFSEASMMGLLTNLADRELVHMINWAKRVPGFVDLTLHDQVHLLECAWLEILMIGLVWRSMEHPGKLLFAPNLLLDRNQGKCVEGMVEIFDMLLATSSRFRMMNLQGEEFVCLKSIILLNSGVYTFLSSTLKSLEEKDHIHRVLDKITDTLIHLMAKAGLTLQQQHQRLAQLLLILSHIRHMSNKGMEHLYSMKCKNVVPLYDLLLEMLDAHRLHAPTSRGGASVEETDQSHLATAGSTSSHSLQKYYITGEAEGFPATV
# TEST: fluorescence polarization competition, displacement of fluorescent estrogen ES2 (Beacon […])
# Assay type: binding
# SETUP CONDITIONS: 1 nM ES2 tracer; relative to estradiol = 100
ASSAY METRIC: RBAα^a
Form: value (number only, do not type unit).

Prompt line: Value lookup for RBAα^a; key = "CC/C(=C(\c1ccc(O)cc1)c1ccc(OC(=O)CCl)cc1)c1ccc(O)cc1"
Response line: 120.08

Prompt line: Entry "CC/C(=C(\c1ccc(O)cc1)c1ccc(OC(=O)CN2CCOCC2)cc1)c1ccc(O)cc1" please
Response line: 8.06

Prompt line: Entry "CC/C(=C(\c1ccc(O)cc1)c1ccc(OC(=O)CN(C)C)cc1)c1ccc(O)cc1" please
Response line: 101.35

Prompt line: Entry "CC/C(=C(\c1ccc(O)cc1)c1ccc(OC(=O)CBr)cc1)c1ccc(O)cc1" please
Response line: 96.37

Prompt line: Entry "CC/C(=C(\c1ccc(O)cc1)c1ccc(C(=O)NCCCBr)cc1)c1ccc(O)cc1" please
Response line: 7.94

Prompt line: Entry "CC/C(=C(\c1ccc(O)cc1)c1ccc(OC(=O)CN(CC)CC)cc1)c1ccc(O)cc1" please
Response line: 108.12

Prompt line: Entry "CC/C(=C(\c1ccc(O)cc1)c1ccc(C(=O)NCCBr)cc1)c1ccc(O)cc1" please
Response line: 17.4
